molecular target: T1, HLA-A*02:01 (human); experiment: UV-ligand exchange ELISA (anti-β2m), peptide exchange yield grade
T1 construct: MHC class I monomer made peptide-receptive by UV cleavage of a UV-sensitive ligand; also called peptide-receptive MHC molecules
Measured peptide exchange yield, listed per entry for reference.

Previously resolved entries follow.
The binder identified as GVAGGSILKGV [peptide GVAGGSILKGV (SEQ ID NO: 134)] registered its peptide exchange yield at ≥ 75%

The binder identified as YLAPENGYL [peptide YLAPENGYL (SEQ ID NO: 62)] registered its peptide exchange yield at 20 to 50%

The binder identified as AISEVIGKITA [peptide AISEVIGKITA (SEQ ID NO: 189)] registered its peptide exchange yield at 50 to 75%

The binder identified as MLDDRAYLV [peptide MLDDRAYLV (SEQ ID NO: 128)] registered its peptide exchange yield at 20 to 50%

The binder identified as ALLNAILHSA [peptide ALLNAILHSA (SEQ ID NO: 132)] registered its peptide exchange yield at 50 to 75%

More entries:
The binder identified as NLLEKENYL [peptide NLLEKENYL (SEQ ID NO: 57)] registered its peptide exchange yield at 50 to 75%
